Test system: decay organisms
TEST NAME: soil contact veneer exposure test: dip-treated Scots pine sapwood veneers half buried in damp compost, pulled by hand weekly until failure
MEASUREMENT CONDITIONS: Example 3; solutions in IMS (alcohol)
METRIC NAME: Half life for fungicide at 2% active ingredient (ai) (weeks)
Provide only the numeric value, understood in weeks.

[in] Record lookup: for decay organisms, what Half life for fungicide at 2% active ingredient (ai) belongs to CCCCCCCCCC[N+](C)(C)CCCCCCCCCC.[Cl-] [DDAC, didecyl dimethyl ammonium chloride] ?
[out] 5.00

[in] Record lookup: for decay organisms, what Half life for fungicide at 2% active ingredient (ai) belongs to CCCCCCCCCCCCCN1CC(C)OC(C)C1 (centres unmarked) ?
[out] 4.83

[in] Record lookup: for decay organisms, what Half life for fungicide at 2% active ingredient (ai) belongs to Oc1ccc(Cl)cc1Cc1cc(Cl)ccc1O [Dichlorophen, 2,2′-methylenebis[4-chlorophenol]] ?
[out] 19.83

[in] Record lookup: for decay organisms, what Half life for fungicide at 2% active ingredient (ai) belongs to `COC(=O)N(OC)c1ccccc1COc1ccn(-c2ccc(Cl)cc2)n1` ?
[out] 6.17

[in] Record lookup: for decay organisms, what Half life for fungicide at 2% active ingredient (ai) belongs to CC(Cc1ccc(C(C)(C)C)cc1)CN1C[C@@H](C)O[C@@H](C)C1 (mixture of isomers) ?
[out] 4.67
